target: human CRHR2 (Homo sapiens); construct: expressed in transfected cells; experiment: cAMP assay, h-CRHR2 transfected SK-N-MC cells; format: cell-based; details: Table 13; h-SCP control pA50 minus test compound pA50 within the same assay batch
Sequence (Q13324 whole entry): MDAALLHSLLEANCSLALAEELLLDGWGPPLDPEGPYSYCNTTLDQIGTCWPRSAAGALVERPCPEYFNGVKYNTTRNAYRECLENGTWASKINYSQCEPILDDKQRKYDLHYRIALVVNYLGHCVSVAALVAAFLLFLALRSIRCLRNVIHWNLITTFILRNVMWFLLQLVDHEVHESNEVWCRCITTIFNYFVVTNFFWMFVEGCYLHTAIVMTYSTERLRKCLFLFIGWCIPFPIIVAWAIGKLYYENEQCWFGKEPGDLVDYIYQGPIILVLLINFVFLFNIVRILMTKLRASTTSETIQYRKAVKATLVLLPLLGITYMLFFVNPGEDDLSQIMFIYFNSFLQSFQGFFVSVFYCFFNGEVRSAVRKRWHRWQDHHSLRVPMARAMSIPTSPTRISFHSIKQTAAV
Where no end group is shown, it is not given here.
Response key: Met means Log DR [M] >= 0.7; Not met means Log DR [M] < 0.7.

input: Please tell me: is the substance TKFTLSLDVPTNIMNLLFNIAKAKNLRAQAAANAHLCAQI-NH2 [SEQ ID NO: 38] at or over 0.7 in terms of Log DR [M]?
output: Met

input: Please tell me: is the substance TKFTLCLDVPTNIMNLLFNIAKAKNLRAQAAANAHLMAQI-NH2 [SEQ ID NO: 7] at or over 0.7 in terms of Log DR [M]?
output: Met

input: Please tell me: is the substance TKFTLSLDVPTNIMNLLFNIAKAKNLRAQAAANACLMAQI-NH2 [SEQ ID NO: 36] at or over 0.7 in terms of Log DR [M]?
output: Not met

input: Please tell me: is the substance TKFTLSLDVPTNICNLLFNIAKAKNLRAQAAANAHLMAQI-NH2 [SEQ ID NO: 15] at or over 0.7 in terms of Log DR [M]?
output: Met

input: Please tell me: is the substance TKFTLSLCVPTNIMNLLFNIAKAKNLRAQAAANAHLMAQI-NH2 [SEQ ID NO: 9] at or over 0.7 in terms of Log DR [M]?
output: Met

input: Please tell me: is the substance TKFTLSLDVPTNIMNLLFNIAKCKNLRAQAAANAHLMAQI-NH2 [SEQ ID NO: 24] at or over 0.7 in terms of Log DR [M]?
output: Met

input: Please tell me: is the substance TKFTLSLDVPTNIMNLLFNIAKAKCLRAQAAANAHLMAQI-NH2 [SEQ ID NO: 26] at or over 0.7 in terms of Log DR [M]?
output: Not met
